Values were extracted from ChEMBL document CHEMBL1134290.

system: Rattus norvegicus; assay: Ratio of myocardial infarct zone to area at risk (IZ/AAR) in ischemic myocardium damage rat model (Cardioprotective effect) at 0.3 mg/Kg; type: functional
quantity.name: Effect (%)
Report the value in % with no unit label.

Challenge: I have this molecule here, COC(OC)[C@]1(C)Oc2ccc([N+](=O)[O-])cc2[C@@H](/N=C(\NC#N)Nc2ccc(Cl)cc2)[C@@H]1O , and I need its recorded Effect.
Response given: 52

###

test system: Rattus norvegicus; experiment: Ratio of myocardial infarct zone to area at risk (IZ/AAR) in ischemic myocardium damage rat model (Cardioprotective effect) at 0.3 mg/Kg; type: functional
Reported values of Effect for individual entries
Report the value in % with no unit label.

Here is how some compounds turned out for Effect.
Challenge: I have this compound here, COC(OC)[C@@]1(C)Oc2ccc(N)cc2[C@H](/N=C(\NC#N)NCc2ccccc2)[C@H]1O , and I need its recorded Effect.
Response given: 51

Challenge: I have this compound here, COC(OC)[C@]1(C)Oc2ccc(N)cc2[C@H](/N=C(\NC#N)NCc2ccccc2)[C@H]1O , and I need its recorded Effect.
Response given: 51

Challenge: I have this compound here, CC1(C)COC([C@]2(C)Oc3ccc(N)cc3[C@H](/N=C(\NC#N)NCc3ccccc3)[C@@H]2O)OC1 , and I need its recorded Effect.
Response given: 56

Challenge: I have this compound here, COC(OC)[C@]1(C)Oc2ccc(N)cc2[C@@H](/N=C(\NC#N)NCc2ccccc2)[C@@H]1O , and I need its recorded Effect.
Response given: 46

Further cases:
Challenge: I have this compound here, COC(OC)C1(C)Oc2ccc(N)cc2C(/N=C(\NC#N)NCc2ccccc2)[C@@H]1O (single isomer, unassigned) , and I need its recorded Effect.
Response given: 37

Challenge: I have this compound here, COC(OC)[C@]1(C)Oc2ccc([N+](=O)[O-])cc2[C@@H](/N=C(\NC#N)Nc2cccc(Cl)c2)[C@@H]1O , and I need its recorded Effect.
Response given: 40

Challenge: I have this compound here, COC(OC)[C@@]1(C)Oc2ccc([N+](=O)[O-])cc2C(N/C(=N/C#N)NCc2ccccc2)[C@H]1O (single isomer, unassigned) , and I need its recorded Effect.
Response given: 49

Challenge: I have this compound here, COc1ccc(CN/C(=N/C2c3cc(N)ccc3OC(C)(C(OC)OC)[C@H]2O)NC#N)cc1 (single isomer, unassigned) , and I need its recorded Effect.
Response given: 42

Challenge: I have this compound here, COC(OC)C1(C)Oc2ccc([N+](=O)[O-])cc2C(/N=C(\NC#N)NCc2ccccc2)[C@@H]1O (single isomer, unassigned) , and I need its recorded Effect.
Response given: 49

###

test system: Rattus norvegicus; test: Ratio of myocardial infarct zone to area at risk […] in ischemic myocardium damage rat model (Cardioprotective effect) at 0.3 mg/Kg; assay type: functional
Rule: Effect of 40% or more gives true (1); anything lower gives false (0).

Challenge: Tell me whether Effect is at least 40% here: COC(OC)[C@]1(C)Oc2ccc([N+](=O)[O-])cc2[C@@H](/N=C(\NC#N)Nc2cccc(Cl)c2)[C@@H]1O
Response given: true (1)

Challenge: Tell me whether Effect is at least 40% here: COC(OC)C1(C)Oc2ccc([N+](=O)[O-])cc2C(/N=C(\NC#N)NCc2ccccc2)[C@@H]1O (single isomer, unassigned)
Response given: false (0)

Challenge: Tell me whether Effect is at least 40% here: COC(OC)[C@@]1(C)Oc2ccc(N)cc2[C@H](/N=C(\NC#N)NCc2ccccc2)[C@H]1O
Response given: false (0)

Challenge: Tell me whether Effect is at least 40% here: COC(OC)C1(C)Oc2ccc(N)cc2C(/N=C(\NC#N)NCc2ccccc2)[C@@H]1O (single isomer, unassigned)
Response given: false (0)

Further cases:
Challenge: Tell me whether Effect is at least 40% here: COc1ccc(N/C(=N/[C@H]2c3cc([N+](=O)[O-])ccc3O[C@@](C)(C(OC)OC)[C@H]2O)NC#N)cc1
Response given: false (0)
